- assay remarks: Liver microsomal binding
- Type: in vitro ADME
- conditions: human, liver microsomes, 1.0 mg/mL, read-out: % Free in liver microsomes
property name: fraction unbound at 1 μM
Write the value as a bare number.

fraction unbound at 1 μM reading for C=CC(=O)N[C@H]1CCC[C@H]1NC(=O)c1sc2nccc3c2c1NC(=O)N3c1cnc(CC(C)C)cc1C (atropisomer, axis not shown) : 0.641

###

- assay remarks: Rat collagen-induced arthritis
- Assay type: in vivo, female Wistar rat
- conditions: female, Wistar, rat, plasma, oral, 2 mg/kg/day; read-out: Cmax at efficacious dose
- Procedure: In vivo activity in collagen-induced arthritis—A rat CIA model in female Wistar rats was used to define the impact of the compound of Formula (III) on chronic inflammation and derive PK-PD correlations (FIG. 16). […] Hind paws volume and body weight were monitored daily for 7 consecutive days (days 10-16) after initiation of test article dosing. Left and right paw volumes in each rat were measured by a Plethysmometer (Catalog No. 7140, Ugo Basile. Italy). […]
property name: Cmax (ng/mL)
Quick reminder: number only, in ng/mL, skip the unit.

Cmax reading for C=CC(=O)N[C@H]1CCC[C@H]1NC(=O)c1sc2nccc3c2c1NC(=O)N3c1cnc(CC(C)C)cc1C (atropisomer, axis not shown) : 46.6
